Recorded values, source patent US20130150301A1.

Molecular target: T1, human calcium-sensing receptor (CaSR) (human, UniProt P41180 20-1078)
T1 sequence (looked up): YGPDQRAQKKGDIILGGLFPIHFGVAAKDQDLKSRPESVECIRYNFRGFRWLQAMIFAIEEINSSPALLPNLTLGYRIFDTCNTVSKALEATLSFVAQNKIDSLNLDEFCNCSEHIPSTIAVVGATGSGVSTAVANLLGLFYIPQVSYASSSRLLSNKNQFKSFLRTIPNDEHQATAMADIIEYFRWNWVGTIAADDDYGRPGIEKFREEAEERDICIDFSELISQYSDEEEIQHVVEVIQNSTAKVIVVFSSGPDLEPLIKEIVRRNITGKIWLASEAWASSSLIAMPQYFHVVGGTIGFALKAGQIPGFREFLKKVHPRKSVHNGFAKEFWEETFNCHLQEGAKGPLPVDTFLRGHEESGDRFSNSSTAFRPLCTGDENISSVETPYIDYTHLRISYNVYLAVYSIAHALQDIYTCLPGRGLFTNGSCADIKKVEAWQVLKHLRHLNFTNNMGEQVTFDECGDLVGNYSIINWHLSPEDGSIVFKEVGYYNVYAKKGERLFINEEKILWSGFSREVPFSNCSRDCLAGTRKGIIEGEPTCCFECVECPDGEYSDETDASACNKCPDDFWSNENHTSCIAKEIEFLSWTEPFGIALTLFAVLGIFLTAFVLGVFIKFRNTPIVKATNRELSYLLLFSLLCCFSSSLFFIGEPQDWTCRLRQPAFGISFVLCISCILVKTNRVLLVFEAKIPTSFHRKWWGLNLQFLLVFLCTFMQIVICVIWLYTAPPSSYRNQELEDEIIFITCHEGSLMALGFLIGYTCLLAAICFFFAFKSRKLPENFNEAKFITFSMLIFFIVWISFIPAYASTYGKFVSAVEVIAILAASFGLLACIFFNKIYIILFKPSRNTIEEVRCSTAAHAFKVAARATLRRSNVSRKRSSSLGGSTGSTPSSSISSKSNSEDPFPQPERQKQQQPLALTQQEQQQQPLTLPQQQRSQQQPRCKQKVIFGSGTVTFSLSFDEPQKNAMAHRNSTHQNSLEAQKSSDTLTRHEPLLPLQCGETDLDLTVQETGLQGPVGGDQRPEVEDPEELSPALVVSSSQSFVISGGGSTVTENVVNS
Assay: cell-based or functional assay
Ends that are not written are not given here.
EC50 (IP1 production in HEK293 cells that express the human CaSR) listing for selected binders.
readout: EC50 (IP1 production in HEK293 cells that express the human CaSR) (µM)

binder	valueUnit	signQualifier	recordedNumber
XXXXX (N-terminal acetyl; C-terminal amide; all D-residues) [Ac-crrrr-NH2 (SEQ ID NO: 4)]	µM	=	16
conjugate of SEQ ID NO: 46 (CPDYHDAGI) and SEQ ID NO: 47 (Ac-CYGRKKRRQRRR-NH2) (not fully specified; cysteine pairing not given here) peptide 1: CPDYHDAGI peptide 2: Ac-CYGRKKRRQRRR-NH2	µM	=	21
XAXXXAX (N-terminal acetyl; C-terminal amide; D-Cys 1, L-Ala 2 and 6, D-Arg 3, 4, 5 and 7) [Ac-cArrrAr-NH2 (SEQ ID NO: 43)]	µM	>	1000
XXXXXXXX (acetylated beta-alanine (Ac-bAla) at the N-terminus; C-terminal amide; D-Cys and six D-Arg) [Ac-bAla-crrrrrr-NH2 (SEQ ID NO: 30)]	µM	=	1
Ac-YGRKKRRQRRR-NH2 [Ac-YGRKKRRQRRR-NH2 (SEQ ID NO: 48)]	µM	=	16
XXXXXXXX (acetylated beta-alanine (Ac-bAla) at the N-terminus; C-terminal amide; carrrar all D; L-Cys (C) attached to the side chain of the D-Cys) [Ac-bAla-c(C)arrrar-NH2 (SEQ ID NO: 61)]	µM	=	2.6
XXXXXXX (N-terminal acetyl; C-terminal amide; D-homocysteine (dHcy) at position 1; D-Arg 2-7) [Ac-dHcy rrrrrr-NH2 (SEQ ID NO: 32)]	µM	=	2
